system tested: human Fatty Acid Synthase (Homo sapiens, UniProt P49327)
Construct: made in house
Sequence (P49327 whole entry): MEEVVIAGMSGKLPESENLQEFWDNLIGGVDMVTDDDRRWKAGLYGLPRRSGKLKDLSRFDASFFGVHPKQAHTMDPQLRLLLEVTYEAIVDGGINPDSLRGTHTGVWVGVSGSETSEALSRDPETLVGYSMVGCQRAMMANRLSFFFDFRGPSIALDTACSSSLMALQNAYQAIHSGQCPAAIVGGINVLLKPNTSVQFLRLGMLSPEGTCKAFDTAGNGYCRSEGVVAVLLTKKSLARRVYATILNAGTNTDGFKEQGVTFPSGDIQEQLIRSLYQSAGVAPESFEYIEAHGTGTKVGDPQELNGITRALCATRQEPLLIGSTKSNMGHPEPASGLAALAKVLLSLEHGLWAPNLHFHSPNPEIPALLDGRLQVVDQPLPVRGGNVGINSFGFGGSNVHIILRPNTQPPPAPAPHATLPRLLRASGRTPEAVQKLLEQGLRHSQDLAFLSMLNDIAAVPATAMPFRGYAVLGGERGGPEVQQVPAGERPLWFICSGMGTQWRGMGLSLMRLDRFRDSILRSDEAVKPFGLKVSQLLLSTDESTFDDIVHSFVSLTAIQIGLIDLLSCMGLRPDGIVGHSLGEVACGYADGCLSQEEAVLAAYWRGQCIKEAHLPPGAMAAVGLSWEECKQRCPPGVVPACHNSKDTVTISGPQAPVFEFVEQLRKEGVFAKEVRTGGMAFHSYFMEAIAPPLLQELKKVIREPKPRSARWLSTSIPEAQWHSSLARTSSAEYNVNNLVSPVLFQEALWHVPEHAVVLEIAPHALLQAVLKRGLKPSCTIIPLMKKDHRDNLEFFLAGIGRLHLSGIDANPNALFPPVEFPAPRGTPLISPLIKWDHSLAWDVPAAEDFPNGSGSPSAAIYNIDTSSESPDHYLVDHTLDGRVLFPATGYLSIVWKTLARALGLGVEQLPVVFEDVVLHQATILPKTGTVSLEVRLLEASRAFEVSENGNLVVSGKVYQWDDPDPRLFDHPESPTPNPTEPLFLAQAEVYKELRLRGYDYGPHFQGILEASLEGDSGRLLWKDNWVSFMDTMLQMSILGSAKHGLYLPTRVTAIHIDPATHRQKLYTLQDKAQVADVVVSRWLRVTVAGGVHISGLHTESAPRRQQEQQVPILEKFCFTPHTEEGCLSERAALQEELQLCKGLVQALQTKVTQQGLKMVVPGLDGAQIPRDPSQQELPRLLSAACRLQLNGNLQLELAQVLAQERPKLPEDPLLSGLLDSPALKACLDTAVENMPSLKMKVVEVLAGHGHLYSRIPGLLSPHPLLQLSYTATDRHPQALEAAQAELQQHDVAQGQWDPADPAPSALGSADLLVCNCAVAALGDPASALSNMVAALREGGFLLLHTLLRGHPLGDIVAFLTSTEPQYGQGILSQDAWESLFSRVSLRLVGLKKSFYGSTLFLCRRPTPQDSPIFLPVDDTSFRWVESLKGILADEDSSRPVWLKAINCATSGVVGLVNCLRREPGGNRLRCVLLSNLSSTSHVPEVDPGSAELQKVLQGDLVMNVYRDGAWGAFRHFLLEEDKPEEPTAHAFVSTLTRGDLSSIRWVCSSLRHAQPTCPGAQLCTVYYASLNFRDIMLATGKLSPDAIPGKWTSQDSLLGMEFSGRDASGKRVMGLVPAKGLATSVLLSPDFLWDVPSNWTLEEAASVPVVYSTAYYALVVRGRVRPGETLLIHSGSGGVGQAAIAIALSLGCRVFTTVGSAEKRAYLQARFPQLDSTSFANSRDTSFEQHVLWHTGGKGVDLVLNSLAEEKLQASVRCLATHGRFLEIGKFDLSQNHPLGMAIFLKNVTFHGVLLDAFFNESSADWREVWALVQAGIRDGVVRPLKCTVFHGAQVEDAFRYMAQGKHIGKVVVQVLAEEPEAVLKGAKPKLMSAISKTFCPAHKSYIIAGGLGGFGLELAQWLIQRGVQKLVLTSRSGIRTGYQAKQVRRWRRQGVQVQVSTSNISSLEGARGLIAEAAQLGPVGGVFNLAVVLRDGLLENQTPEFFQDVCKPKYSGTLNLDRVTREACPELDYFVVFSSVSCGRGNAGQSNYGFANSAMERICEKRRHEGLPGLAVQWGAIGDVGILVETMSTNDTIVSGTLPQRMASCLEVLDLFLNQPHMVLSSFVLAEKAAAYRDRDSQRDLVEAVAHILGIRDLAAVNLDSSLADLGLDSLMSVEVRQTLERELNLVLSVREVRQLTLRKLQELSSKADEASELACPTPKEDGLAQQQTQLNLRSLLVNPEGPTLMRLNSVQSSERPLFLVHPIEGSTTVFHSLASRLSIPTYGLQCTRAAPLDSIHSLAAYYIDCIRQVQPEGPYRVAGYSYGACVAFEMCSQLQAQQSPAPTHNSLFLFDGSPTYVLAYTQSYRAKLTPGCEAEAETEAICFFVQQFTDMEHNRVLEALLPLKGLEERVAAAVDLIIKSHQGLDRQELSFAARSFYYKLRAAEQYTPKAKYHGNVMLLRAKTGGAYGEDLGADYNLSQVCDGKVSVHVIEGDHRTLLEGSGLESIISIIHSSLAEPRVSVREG
assay procedure: Human FAS enzyme assay (decrease in NADPH fluorescence)
Format: biochemical
particulars: % inhibition at a concentration of 100 micromolar
readout type: inhibition at 100 µM (%)

> print(dat)
                        structure.as.smiles          readout.type  val
1  CC(=O)N1CCC(S(=O)(=O)Nc2cc(C(=O)N3CCC(c4ccc(C#N)cc4)CC3)ccc2C)CC1  inhibition at 100 µM   85
2  Cc1ccc(C(=O)N2CCC(c3ccc(-c4nnco4)cc3)CC2)cc1NS(C)(=O)=O  inhibition at 100 µM   75
3  CCCCOc1ccc(S(=O)(=O)Nc2cc(C(=O)N3CCC(c4ccc(C#N)cc4)CC3)ccc2C)cc1  inhibition at 100 µM   83
4  Cc1ccc(NS(=O)(=O)C2CC2)cc1C(=O)N1CCC(c2ccc(C#N)cc2)CC1  inhibition at 100 µM   89
5  Cc1ccc(NS(=O)(=O)CCCCl)cc1C(=O)N1CCC(c2ccc(C#N)cc2)CC1  inhibition at 100 µM   89
6  Cc1ccc(C(=O)N2CCC(c3ccc(C(=O)NCCN(C)C)cc3)CC2)cc1NS(C)(=O)=O  inhibition at 100 µM   64
7  Cc1ccc(C(=O)N2CCC(c3ccc(C#N)cc3)CC2)cc1NS(=O)(=O)c1ccc(N2CCOCC2)nc1  inhibition at 100 µM   79
8  Cc1ccc(C(=O)N2CCC(c3ccc(C#N)cc3)CC2)cc1NS(=O)(=O)Cc1ccc(S(C)(=O)=O)cc1  inhibition at 100 µM   82

---

system tested: human Fatty Acid Synthase (Homo sapiens)
Construct: made in house
assay procedure: Human FAS enzyme assay (decrease in NADPH fluorescence)
Type: biochemical
particulars: % inhibition at a concentration of 100 micromolar
readout type: inhibition at 100 µM (%)

> print(dat)
                        structure.as.smiles                             system.tested  val
1  Cc1ccc(C(=O)N2CCC(c3ccc(C#N)cc3)CC2)cc1NS(=O)(=O)CCCNS(C)(=O)=O  human Fatty Acid Synthase (Homo sapiens)   88
2  Cc1ccc(C(=O)N2CCC(c3ccc(C#N)cc3)CC2)cc1NS(=O)(=O)CCCN1C(=O)c2ccccc2C1=O  human Fatty Acid Synthase (Homo sapiens)   97
3  N#Cc1ccc(C2CCN(C(=O)c3cc(NS(=O)(=O)Cc4ccccc4)ccc3F)CC2)cc1  human Fatty Acid Synthase (Homo sapiens)   79
4  CC(=O)Nc1ccc(S(=O)(=O)Nc2ccc(C)c(C(=O)N3CCC(c4ccc(C#N)cc4)CC3)c2)cc1  human Fatty Acid Synthase (Homo sapiens)   84

---

The next entries give measured IC50 for UniProt:P49327.
readout type: IC50 (µM)

> print(dat)
                                   compound  scale.unit   val
1  Cc1ccc(C(=O)N2CCC(c3ccc(CNS(=O)(=O)CC(=O)O)cc3)CC2)cc1NS(C)(=O)=O [Example 253]          µM  12.7

(1) Cc1ccc(C(=O)N2CCC(c3ccc(C#CCCO)cc3)CC2)cc1NS(C)(=O)=O [Example 251]
(2) Cc1ccc(C(=O)N2CCC(c3ccc(C#CCCCO)cc3)CC2)cc1NS(C)(=O)=O [Example 250]
Prompt: Kindly compare 1 with 2 and tell me which has the lower IC50 figure. The response must carry the label of the picked entry.
Response: 1

---

system tested: human Fatty Acid Synthase (Homo sapiens, UniProt P49327)
Construct: made in house
assay procedure: Human FAS enzyme assay (decrease in NADPH fluorescence)
Format: biochemical
particulars: % inhibition at a concentration of 100 micromolar
readout type: inhibition at 100 µM (%)

(P) Cc1ccc(C(=O)N2CCC(c3ccc(S(C)(=O)=O)cc3)CC2)cc1NS(=O)(=O)Cc1ccccc1
(Q) Cc1ccc(C(=O)N2CCC(c3ccc(C#N)cc3)CC2)cc1NS(=O)(=O)c1ccn(C)n1
Prompt: Endpoint returns whichever of P and Q has the numerically higher inhibition at 100 µM. The response must carry the label of the picked entry.
Response: Q

---

system tested: human Fatty Acid Synthase (Homo sapiens, UniProt P49327)
Construct: made in house
assay procedure: Human FAS enzyme assay (decrease in NADPH fluorescence)
Format: biochemical
particulars: % inhibition at a concentration of 100 micromolar
readout type: inhibition at 100 µM (%)

> print(dat)
                                   compound  val
1  CNS(=O)(=O)c1ccc(C2CCN(C(=O)c3ccc(C)c(NS(C)(=O)=O)c3)CC2)cc1 [Example 183]   90

(A) Cc1ccc(C(=O)N2CCC(c3ccc(CCC(=O)O)cc3)CC2)cc1NS(=O)(=O)C1CCCCC1 [Example 244]
(B) Cc1ccc(C(=O)N2CCC(O)(c3ccc(C(F)(F)F)cc3)CC2)cc1NS(C)(=O)=O [Example 215]
Prompt: Kindly compare A with B and tell me which has the lower inhibition at 100 µM figure. The response must carry the label of the picked entry.
Response: B
(B: 56%, A: 92.3%)

---

system tested: human Fatty Acid Synthase (Homo sapiens, UniProt P49327)
Construct: made in house
assay procedure: Human FAS enzyme assay (decrease in NADPH fluorescence)
Type: biochemical
particulars: % inhibition at a concentration of 100 micromolar
readout type: inhibition at 100 µM (%)

Check out these entries, answers already filled in.
> print(dat)
                        structure.as.smiles  val
1  Cc1ccc(C(=O)N2CCC(c3ccc(-c4nccs4)cc3)CC2)cc1NS(C)(=O)=O   74
2  Cc1ccc(C(=O)N2CCC(c3ccc(C#N)cc3)CC2)cc1NS(=O)(=O)CCCN(C)C   95
3  Cc1ccc(C(=O)N2CCC(c3ccc(C#N)cc3)CC2)cc1NS(=O)(=O)CCNS(C)(=O)=O   98

(A) C=CS(=O)(=O)Nc1cc(C(=O)N2CCC(c3ccc(C#N)cc3)CC2)ccc1C
(B) Cc1ccc(C(=O)N2CCC(O)(c3ccc(Br)cc3)CC2)cc1NS(=O)(=O)Cc1ccccc1
Prompt: Kindly compare A with B and tell me which has the lower inhibition at 100 µM figure. The response must carry the label of the picked entry.
Response: B
(B: 68%, A: 110%)

---

system tested: human Fatty Acid Synthase (Homo sapiens, UniProt P49327)
Construct: made in house
assay procedure: Human FAS enzyme assay (decrease in NADPH fluorescence)
Format: biochemical
particulars: % inhibition at a concentration of 100 micromolar
readout type: inhibition at 100 µM (%)

> print(dat)
                                   molecule          readout.type  val
1  Cc1ccc(C(=O)N2CCC(c3ccc(Oc4ncccn4)cc3)CC2)cc1NS(C)(=O)=O  inhibition at 100 µM   88
2  CSCc1ccc(C(=O)N2CCC(c3ccc(C#N)cc3)CC2)cc1NS(C)(=O)=O  inhibition at 100 µM   78
3  N#Cc1ccc(C2CCN(C(=O)c3cccc(NS(=O)(=O)Cc4ccccc4)c3)CC2)cc1  inhibition at 100 µM   80
4  Cc1ccc(C(=O)N2CCC(c3ccc(OS(C)(=O)=O)cc3)CC2)cc1NS(C)(=O)=O  inhibition at 100 µM   80
5  Cc1ccc(C(=O)N2CCC(c3ccc(C#N)cc3)CC2)cc1NS(=O)(=O)CC(O)CN(C)C (centres unmarked)  inhibition at 100 µM   88

---

system tested: human Fatty Acid Synthase (Homo sapiens)
Construct: made in house
assay procedure: Human FAS enzyme assay (decrease in NADPH fluorescence)
Format: biochemical
particulars: % inhibition at a concentration of 100 micromolar
readout type: inhibition at 100 µM (%)

> print(dat)
                                   compound   val
1  Cc1ccc(NS(=O)(=O)c2cccc(C#N)c2)cc1C(=O)N1CCC(c2ccc(C#N)cc2)CC1 [Example 47]    85
2  CC(=O)Nc1ccc(S(=O)(=O)Nc2cc(C(=O)N3CCC(c4ccc(C#N)cc4)CC3)ccc2C)cc1 [Example 22]    95
3  Cc1ccc(C(=O)N2CCC(c3ccc(CNS(=O)(=O)CC(C)C)cc3)CC2)cc1NS(C)(=O)=O [Example 238]  81.3
4  CCNC(=O)NCc1ccc(C2CCN(C(=O)c3ccc(C)c(NS(C)(=O)=O)c3)CC2)cc1 [Example 234]  78.3
5  Cc1ccc(C(=O)N2CCC(c3ccc(S(C)(=O)=O)cc3)CC2)cc1NS(C)(=O)=O [Example 68]    74
6  CSc1ccc(C(=O)N2CCC(c3ccc(C#N)cc3)CC2)cc1NS(=O)(=O)Cc1ccccc1 [Example 160]    89
7  CS(=O)(=O)Nc1cccc(C(=O)N2CCC(c3ccc(C#N)cc3)CC2)c1 [Example 203]    71

---

system tested: human Fatty Acid Synthase (Homo sapiens, UniProt P49327)
Construct: made in house
assay procedure: Human FAS enzyme assay (decrease in NADPH fluorescence)
Assay type: biochemical
particulars: % inhibition at a concentration of 100 micromolar
readout type: inhibition at 100 µM (%)

> print(dat)
                                    molecule                             system.tested          readout.type   val
 1  CCS(=O)(=O)Nc1ccc(C)c(C(=O)N2CCC(c3ccc(C#N)cc3)CC2)c1  human Fatty Acid Synthase (Homo sapiens, UniProt P49327)  inhibition at 100 µM    88
 2  CSc1ccc(C(=O)N2CCC(c3ccc(C#N)cc3)CC2)cc1NS(C)(=O)=O  human Fatty Acid Synthase (Homo sapiens, UniProt P49327)  inhibition at 100 µM    80
 3  Cc1ccc(C(=O)N2CCC(c3ccc(CNS(C)(=O)=O)cc3)CC2)cc1NS(C)(=O)=O  human Fatty Acid Synthase (Homo sapiens, UniProt P49327)  inhibition at 100 µM    85
 4  COC(=O)CS(=O)(=O)NCc1ccc(C2CCN(C(=O)c3ccc(C)c(NS(C)(=O)=O)c3)CC2)cc1  human Fatty Acid Synthase (Homo sapiens, UniProt P49327)  inhibition at 100 µM   104
 5  Cc1ccc(C(=O)N2CCC(c3ccc(C#N)cc3)CC2)cc1NS(=O)(=O)c1cccc(C(=O)N(C)C)c1  human Fatty Acid Synthase (Homo sapiens, UniProt P49327)  inhibition at 100 µM    93
 6  Cc1ccc(NS(=O)(=O)C2CCS(=O)(=O)C2)cc1C(=O)N1CCC(c2ccc(C#N)cc2)CC1 (centres unmarked)  human Fatty Acid Synthase (Homo sapiens, UniProt P49327)  inhibition at 100 µM    82
 7  Cc1ccc(C(=O)N2CCC(c3ccc(C#N)cc3)CC2)cc1NS(=O)(=O)CC1CCCC1  human Fatty Acid Synthase (Homo sapiens, UniProt P49327)  inhibition at 100 µM    95
 8  Cc1ccc(C(=O)N2CCC(c3ccc(C#N)cc3)CC2)cc1NS(=O)(=O)c1ccccc1C(N)=O  human Fatty Acid Synthase (Homo sapiens, UniProt P49327)  inhibition at 100 µM    77
 9  CNC(=O)Cc1ccc(C2CCN(C(=O)c3ccc(C)c(NS(C)(=O)=O)c3)CC2)cc1  human Fatty Acid Synthase (Homo sapiens, UniProt P49327)  inhibition at 100 µM  63.9
10  Cc1ccc(NS(=O)(=O)CC2CCCC2)cc1C(=O)N1CCC(c2ccc(C#N)cc2)CC1  human Fatty Acid Synthase (Homo sapiens, UniProt P49327)  inhibition at 100 µM    93
11  CCCC(=O)NCc1ccc(C2CCN(C(=O)c3ccc(C)c(NS(C)(=O)=O)c3)CC2)cc1  human Fatty Acid Synthase (Homo sapiens, UniProt P49327)  inhibition at 100 µM  72.8
12  Cc1ccc(C(=O)N2CCC(c3ccc(CS(C)(=O)=O)cc3)CC2)cc1NS(C)(=O)=O  human Fatty Acid Synthase (Homo sapiens, UniProt P49327)  inhibition at 100 µM    74
13  Cc1ccc(C(=O)N2CCC(c3ccc(F)cc3)CC2)cc1NS(C)(=O)=O  human Fatty Acid Synthase (Homo sapiens, UniProt P49327)  inhibition at 100 µM    71
14  Cc1ccc(C(=O)N2CCC(c3ccc([S+](C)[O-])cc3)CC2)cc1NS(C)(=O)=O (centres unmarked)  human Fatty Acid Synthase (Homo sapiens, UniProt P49327)  inhibition at 100 µM    80
